# reported IC50; entries follow
# System: recombinant human norepinephrine transporter (Homo sapiens)
# Construct: expressed in transfected cells; host or cells: HEK293 or MDCK
# Sequence (P23975 whole entry): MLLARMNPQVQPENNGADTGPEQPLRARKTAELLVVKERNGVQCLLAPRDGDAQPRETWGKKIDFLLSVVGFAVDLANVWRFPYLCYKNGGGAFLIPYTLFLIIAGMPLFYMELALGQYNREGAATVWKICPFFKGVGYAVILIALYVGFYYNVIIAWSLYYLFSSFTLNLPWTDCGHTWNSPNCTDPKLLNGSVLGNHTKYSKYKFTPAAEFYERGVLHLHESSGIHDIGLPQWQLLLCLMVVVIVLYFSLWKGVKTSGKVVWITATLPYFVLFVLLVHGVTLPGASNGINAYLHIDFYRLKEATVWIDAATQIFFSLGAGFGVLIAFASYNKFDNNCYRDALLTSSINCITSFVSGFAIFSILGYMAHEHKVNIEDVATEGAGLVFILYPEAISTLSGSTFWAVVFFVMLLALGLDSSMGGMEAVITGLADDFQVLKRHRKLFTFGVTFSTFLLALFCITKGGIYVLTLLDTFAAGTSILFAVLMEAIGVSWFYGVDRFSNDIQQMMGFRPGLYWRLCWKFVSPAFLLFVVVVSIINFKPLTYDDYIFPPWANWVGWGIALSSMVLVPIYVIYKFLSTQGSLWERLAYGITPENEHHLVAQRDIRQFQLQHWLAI
# Assay summary: Norepinephrine functional uptake assay for human reuptake transporter
# Type: cell-based
# Applied conditions: [3H]norepinephrine uptake, HEK293 or MDCK cells expressing human norepinephrine transporter; read-out: Human IC50 (nM) NET

Compound: CN(C)[C@@H]1c2ccccc2CC[C@@H]1c1ccc(Cl)c(Cl)c1 (single isomer, unassigned) [Compound 41b]
Units: nM
Bound operator: >
IC50: 10000
//
Compound: CC(C1=Cc2ccccc2[C@H](c2ccc(Cl)c(Cl)c2)C1)N(C)C (some centres unmarked)
Units: nM
Bound operator: =
IC50: 2720
//
Compound: CN(C)[C@H]1CCc2ccccc2[C@H]1c1ccc(Cl)c(Cl)c1 (single isomer, unassigned) [Compound 37c]
Units: nM
Bound operator: =
IC50: 1190
//
Compound: CN(C)[C@H]1CCc2ccccc2[C@H]1c1ccc(Cl)c(Cl)c1 (single isomer, unassigned) [Compound 37a]
Units: nM
Bound operator: =
IC50: 2380
//
Compound: COc1ccc2c(c1)C(c1ccc(Cl)c(Cl)c1)CC(N(C)C)C2 (single isomer, unassigned) [Compound 33a.1]
Units: nM
Bound operator: =
IC50: 2310
